I'd appreciate it if you could supply t½ values for the items below.
Target: T1, recombinant cynomolgus monkey PD-1 expressed with a C-terminal myc-myc-hexahistidine tag (cynomolgus monkey (Macaca fascicularis))
T1 construct: monomeric; also called MfPD-1-MMH
T1 chain: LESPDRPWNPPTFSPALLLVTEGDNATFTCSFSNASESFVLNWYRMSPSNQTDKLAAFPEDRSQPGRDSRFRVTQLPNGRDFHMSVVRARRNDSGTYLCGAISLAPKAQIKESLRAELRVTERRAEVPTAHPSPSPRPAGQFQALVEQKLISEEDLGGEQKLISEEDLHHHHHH
Assay: SPR, mAb captured, 37C;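 also: rate constants from fitting sensorgrams to a 1:1 binding model, with Kd computed as koff/kon and half-life as ln2/(60·koff), PD-1 flowing over anti-PD-1 antibody surfaces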
Answers are plain numbers, in min.

Here's what some known entries look like.
1. H2aM7798N (antibody, mouse IgG2a, V domains shown, Human variable regions, mouse IgG2a Fc; also called H2M7798N) VH: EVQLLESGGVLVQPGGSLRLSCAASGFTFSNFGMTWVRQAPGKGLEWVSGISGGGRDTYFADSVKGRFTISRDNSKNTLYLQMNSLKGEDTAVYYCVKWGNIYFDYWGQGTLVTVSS VL: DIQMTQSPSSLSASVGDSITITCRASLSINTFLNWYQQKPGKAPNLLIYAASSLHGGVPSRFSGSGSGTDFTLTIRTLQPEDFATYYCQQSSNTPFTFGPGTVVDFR | 12
2. H2aM7791N (antibody, mouse IgG2a, V domains shown, Human variable regions, mouse IgG2a Fc; also called H2M7791N) VH: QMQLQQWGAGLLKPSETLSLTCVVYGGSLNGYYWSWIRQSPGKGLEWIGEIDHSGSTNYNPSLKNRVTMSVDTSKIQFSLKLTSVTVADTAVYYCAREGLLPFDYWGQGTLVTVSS VL: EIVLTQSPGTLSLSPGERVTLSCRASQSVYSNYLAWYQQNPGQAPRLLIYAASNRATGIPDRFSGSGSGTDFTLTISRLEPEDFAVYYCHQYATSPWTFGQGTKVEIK | 6
3. H1M7800N (antibody, mouse IgG1, V domains shown, Human variable regions, mouse IgG1 Fc) VH: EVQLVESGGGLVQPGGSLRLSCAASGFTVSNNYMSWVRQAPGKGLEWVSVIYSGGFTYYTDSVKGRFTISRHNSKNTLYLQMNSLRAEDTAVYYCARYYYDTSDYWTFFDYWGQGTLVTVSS VL: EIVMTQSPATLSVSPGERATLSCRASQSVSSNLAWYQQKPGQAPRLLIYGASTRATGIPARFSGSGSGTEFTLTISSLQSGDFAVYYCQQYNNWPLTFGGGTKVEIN | 0.3
4. H4H7795N2 (antibody, human IgG4 S228P, kappa, V domains shown) VH: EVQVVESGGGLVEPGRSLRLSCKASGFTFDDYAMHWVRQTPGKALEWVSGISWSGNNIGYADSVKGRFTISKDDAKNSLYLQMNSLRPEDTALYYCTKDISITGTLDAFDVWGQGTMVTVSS VL: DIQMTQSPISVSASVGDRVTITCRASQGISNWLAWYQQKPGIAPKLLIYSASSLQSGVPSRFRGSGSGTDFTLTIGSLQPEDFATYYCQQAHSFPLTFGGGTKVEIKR | 1.7
5. H4H7798N (antibody, human IgG4 S228P, kappa, V domains shown) VH: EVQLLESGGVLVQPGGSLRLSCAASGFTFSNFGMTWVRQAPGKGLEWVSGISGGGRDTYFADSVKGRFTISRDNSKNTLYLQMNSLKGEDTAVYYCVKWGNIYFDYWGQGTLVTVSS VL: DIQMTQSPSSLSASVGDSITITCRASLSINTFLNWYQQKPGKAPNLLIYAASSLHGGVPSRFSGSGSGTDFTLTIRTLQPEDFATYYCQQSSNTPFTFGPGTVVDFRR | 5

// each listed binder needs a value for t½
1. H2aM7795N (antibody, mouse IgG2a, V domains shown, Human variable regions, mouse IgG2a Fc; also called H2M7795N) VH: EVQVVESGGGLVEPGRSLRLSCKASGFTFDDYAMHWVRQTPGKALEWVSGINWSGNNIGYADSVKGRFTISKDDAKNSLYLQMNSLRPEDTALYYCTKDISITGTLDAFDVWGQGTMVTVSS VL: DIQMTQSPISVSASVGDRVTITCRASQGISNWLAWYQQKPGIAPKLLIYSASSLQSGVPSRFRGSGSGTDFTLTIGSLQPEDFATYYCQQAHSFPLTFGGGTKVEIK
2. H1M7799N (antibody, mouse IgG1, V domains shown, Human variable regions, mouse IgG1 Fc) VH: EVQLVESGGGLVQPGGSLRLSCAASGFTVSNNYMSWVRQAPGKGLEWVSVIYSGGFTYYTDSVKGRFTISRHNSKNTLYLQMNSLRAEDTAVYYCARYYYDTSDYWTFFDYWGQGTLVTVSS VL: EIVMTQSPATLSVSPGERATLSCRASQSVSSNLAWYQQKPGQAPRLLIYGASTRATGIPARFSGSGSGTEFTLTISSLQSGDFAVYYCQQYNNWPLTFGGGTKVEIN

Result:
[3, 0.2]
